Target: NET (Homo sapiens)
Test: hNET radioligand binding assay (3H-nisoxetine)
Parameters: expressed in transfected cells; host or cells: HEK-293
Conditions: hNET membranes (HEK-293), 1.0 nM 3H-nisoxetine
Source text: Membrane radioligand binding assays were used to measure inhibition of labeled ligand (^3H-citalopram or ^3H-nisoxetine or ^3H-WIN35428) binding to membranes prepared from cells expressing the respective human recombinant transporter (hSERT or hNET or hDAT) in order to determine the pKi values of test compounds at the transporters. […]
PARAMETER_MEASURED: NET pKi

Observe how each entry below is paired with its result.
| COMPOUND | ASSAYED_SYSTEM | NET pKi |
| --- | --- | --- |
| Clc1cc(-c2ccccc2)ccc1O[C@@H](c1ncco1)[C@H]1CCNC1.O=C(O)C(F)(F)F [6-25] | NET (Homo sapiens) | ≧7.0 |
| Cc1cc(Cl)ccc1O[C@@H](c1nccs1)[C@H]1CCNC1 [Example 5-22] | NET (Homo sapiens) | ≧7.0 |
| Fc1ccc(O[C@@H](c2nccs2)[C@H]2CCNC2)cc1Cl [Example 5-30] | NET (Homo sapiens) | ≧5.0 |
| Clc1ncccc1O[C@@H](c1ccccc1)[C@H]1CCNC1.O=C(O)C(F)(F)F [15-6] | NET (Homo sapiens) | ≧7.0 |
| Fc1cncc([C@H](Oc2ccc3ccccc3c2)[C@H]2CCNC2)c1.O=C(O)C(F)(F)F [20-3] | NET (Homo sapiens) | ≧7.0 |

In: Return value of NET pKi for input FC(F)(F)c1ccc(O[C@H](c2ccccc2)[C@@H]2CCNC2)nc1.O=C(O)C(F)(F)F [14-24] , no commentary.
Out: ≧5.0

In: Kindly indicate its recorded NET pKi. Item: CCOc1ncccc1O[C@@H](c1ccccc1)[C@H]1CCNC1.O=C(O)C(F)(F)F [15-20]
Out: ≧7.0

In: Return value of NET pKi for input Clc1ncccc1O[C@H](c1ccccc1)[C@@H]1CCNC1.O=C(O)C(F)(F)F [15-5] , no commentary.
Out: ≧7.0

* * *

Molecular target: NET (Homo sapiens)
Test: hNET radioligand binding assay (3H-nisoxetine)
Design: expressed in transfected cells; host or cells: HEK-293
Conditions: hNET membranes (HEK-293), 1.0 nM 3H-nisoxetine; read-out: NET pKi (converted)
PARAMETER_MEASURED: Ki

Check out these entries, answers already filled in.
| MOLECULE | Ki |
| --- | --- |
| Clc1ncccc1O[C@@H](c1ccccc1)C1CCNC1 (stereo partly drawn) [15-4] | ≤ 100 nM |
| Clc1cc(Cl)cc(O[C@H](c2ccco2)[C@H]2CCNC2)c1 [Example 8-4] | ≤ 100 nM |
| Cc1ccc(Cl)c(O[C@H](c2ccncc2)[C@H]2CCNC2)c1Cl [Example 3-7] | ≤ 100 nM |

In: Supply measured Ki of Fc1ccc(O[C@H](c2cccnc2)[C@H]2CCNC2)c(F)c1 [Example 2-71] in your reply.
Out: ≤ 100 nM

In: State its Ki for this molecule: Fc1cncc([C@H](Oc2cc(Cl)c(Cl)cc2Cl)[C@H]2CCNC2)c1 [Example 2-34]
Out: ≤ 10000 nM

In: Quickly give me recorded Ki for Fc1ccc(O[C@@H](c2ccccc2)C2CCNC2)cn1 (stereo partly drawn) [15-25]
Out: ≤ 10000 nM

In: Given FC(F)(F)c1ccccc1O[C@@H](c1ncco1)[C@H]1CCNC1 [6-17] , respond with its Ki.
Out: ≤ 100 nM

In: Tell me Ki reported for Clc1cc(Cl)cc(OC(c2nccs2)C2CCNC2)c1 (stereo not drawn) [Example 5-26]
Out: ≤ 100 nM

In: Answer with the recorded Ki of Fc1ccc(F)c(O[C@@H](c2ccco2)[C@H]2CCNC2)c1Cl [Example 8-1] only.
Out: ≤ 10000 nM

* * *

Target: SERT (Homo sapiens)
Experiment: hSERT radioligand binding assay (3H-citalopram)
Design: expressed in transfected cells; host or cells: HEK-293
Conditions: hSERT membranes (HEK-293), 1.0 nM 3H-citalopram
PARAMETER_MEASURED: SERT pKi

// worked examples, SERT pKi included
| COMPOUND | ASSAY_RESULT |
| --- | --- |
| FC(F)(F)c1cccnc1O[C@H](c1ccccc1)[C@@H]1CCNC1.O=C(O)C(F)(F)F [14-33] | ≧5.0 |
| Fc1ccc(O[C@@H](c2ccccc2)[C@H]2CCNC2)nc1F.O=C(O)C(F)(F)F [14-5] | ≧5.0 |
| Fc1ncccc1O[C@@H](c1ccccc1)[C@H]1CCNC1.O=C(O)C(F)(F)F [15-8] | ≧7.0 |
| Clc1cccc(O[C@@H](c2ccccc2)[C@H]2CCNC2)n1.O=C(O)C(F)(F)F [14-9] | ≧7.0 |
| Clc1cc(Cl)cc(O[C@H](c2nccs2)[C@H]2CCNC2)c1 [Example 5-27] | ≧7.0 |

In: Consider the compound COc1ccccc1O[C@@H](c1ncco1)[C@H]1CCNC1.O=C(O)C(F)(F)F [6-52] . State its measured SERT pKi.
Out: ≧5.0

In: Return the recorded SERT pKi value; entry: FC(F)(F)c1cnc(O[C@@H](c2ccccc2)[C@H]2CCNC2)c(Cl)c1.O=C(O)C(F)(F)F [14-25]
Out: ≧7.0

* * *

Biological target: NET (Homo sapiens, UniProt P23975)
Sequence (P23975 whole entry): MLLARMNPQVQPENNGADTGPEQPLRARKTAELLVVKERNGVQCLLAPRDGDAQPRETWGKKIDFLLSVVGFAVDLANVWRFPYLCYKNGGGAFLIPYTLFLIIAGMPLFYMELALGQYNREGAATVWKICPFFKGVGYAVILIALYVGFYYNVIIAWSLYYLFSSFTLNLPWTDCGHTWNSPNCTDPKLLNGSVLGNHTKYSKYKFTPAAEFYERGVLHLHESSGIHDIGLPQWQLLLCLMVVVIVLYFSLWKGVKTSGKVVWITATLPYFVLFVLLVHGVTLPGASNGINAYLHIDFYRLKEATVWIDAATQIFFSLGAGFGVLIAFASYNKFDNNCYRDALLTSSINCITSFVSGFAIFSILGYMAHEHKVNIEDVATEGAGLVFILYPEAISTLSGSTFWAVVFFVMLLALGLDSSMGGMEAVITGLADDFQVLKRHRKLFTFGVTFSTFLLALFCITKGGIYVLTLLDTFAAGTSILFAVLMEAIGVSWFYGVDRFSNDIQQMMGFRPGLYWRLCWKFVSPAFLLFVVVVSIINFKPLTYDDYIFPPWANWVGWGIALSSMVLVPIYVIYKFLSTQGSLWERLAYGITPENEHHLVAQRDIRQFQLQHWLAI
Test: hNET radioligand binding assay (3H-nisoxetine)
Design: expressed in transfected cells; host or cells: HEK-293
Details: hNET membranes (HEK-293), 1.0 nM 3H-nisoxetine
Text: Membrane radioligand binding assays were used to measure inhibition of labeled ligand (^3H-citalopram or ^3H-nisoxetine or ^3H-WIN35428) binding to membranes prepared from cells expressing the respective human recombinant transporter (hSERT or hNET or hDAT) in order to determine the pKi values of test compounds at the transporters. […]
PARAMETER_MEASURED: NET pKi

The examples below pair each entry with its known result.
| COMPOUND | ASSAY_RESULT |
| --- | --- |
| Fc1cccnc1O[C@H](c1ccccc1)[C@@H]1CCNC1.O=C(O)C(F)(F)F | ≧7.0 |
| Fc1cncc([C@H](Oc2cccc3ccccc23)[C@H]2CCNC2)c1.O=C(O)C(F)(F)F | ≧7.0 |
| CCc1cc(F)cc(F)c1O[C@@H](c1ncco1)[C@H]1CCNC1 | ≧7.0 |
| Fc1cc(Cl)cc(F)c1OC(c1ncco1)C1CCNC1 (stereo not shown) | ≧7.0 |

In: Tell me its NET pKi on NET (Homo sapiens, UniProt P23975): COc1cccc(F)c1O[C@@H](c1ncco1)[C@H]1CCNC1.O=C(O)C(F)(F)F
Out: ≧7.0

* * *

As shown below, each of these molecules has a reported Ki value.
Target: SERT (Homo sapiens, UniProt P31645)
Sequence (P31645 whole entry): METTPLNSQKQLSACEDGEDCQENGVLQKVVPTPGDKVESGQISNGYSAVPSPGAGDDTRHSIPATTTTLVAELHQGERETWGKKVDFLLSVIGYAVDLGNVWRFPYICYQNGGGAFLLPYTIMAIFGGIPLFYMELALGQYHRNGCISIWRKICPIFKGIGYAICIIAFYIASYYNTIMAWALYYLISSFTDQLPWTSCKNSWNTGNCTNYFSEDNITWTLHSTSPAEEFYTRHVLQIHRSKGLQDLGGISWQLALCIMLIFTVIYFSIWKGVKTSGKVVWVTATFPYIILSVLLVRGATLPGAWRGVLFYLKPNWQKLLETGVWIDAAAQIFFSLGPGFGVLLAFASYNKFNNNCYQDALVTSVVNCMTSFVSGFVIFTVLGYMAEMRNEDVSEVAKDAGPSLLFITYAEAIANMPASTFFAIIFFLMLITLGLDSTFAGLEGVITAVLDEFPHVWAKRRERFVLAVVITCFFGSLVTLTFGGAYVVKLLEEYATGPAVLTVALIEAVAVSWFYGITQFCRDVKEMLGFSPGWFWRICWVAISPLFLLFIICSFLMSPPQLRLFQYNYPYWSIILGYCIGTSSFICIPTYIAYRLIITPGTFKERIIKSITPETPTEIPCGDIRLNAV
Experiment: hSERT radioligand binding assay (3H-citalopram)
Design: expressed in transfected cells; host or cells: HEK-293
Conditions: hSERT membranes (HEK-293), 1.0 nM 3H-citalopram; read-out: SERT pKi (converted)

# example entries with known answers
| MOLECULE | ASSAYED_SYSTEM | Ki |
| --- | --- | --- |
| COc1ccccc1O[C@H](c1cnccn1)[C@H]1CCNC1 | SERT (Homo sapiens, UniProt P31645) | ≤ 10 µM |
| COc1cccc(C(Oc2cccc3ccccc23)C2CCNC2)c1 (stereo not shown) | SERT (Homo sapiens, UniProt P31645) | ≤ 0.1 µM |
| COc1ccccc1O[C@H](c1cncc(Cl)c1)[C@H]1CCNC1 | SERT (Homo sapiens, UniProt P31645) | ≤ 10 µM |
| Fc1ccc(OC(c2ccncc2)[C@H]2CCNC2)c(F)c1 (stereo partly shown) | SERT (Homo sapiens, UniProt P31645) | ≤ 10 µM |
| Cc1cc(Cl)ccc1O[C@H](c1cnccn1)[C@H]1CCNC1 | SERT (Homo sapiens, UniProt P31645) | ≤ 0.1 µM |
| c1ccc(C(Oc2ccccn2)C2CCNC2)cc1 (stereo not shown) | SERT (Homo sapiens, UniProt P31645) | ≤ 10 µM |

In: Give the value of Ki reported for the following: Fc1cc(F)c(Cl)c(O[C@H](c2cnccn2)[C@H]2CCNC2)c1Cl
Out: ≤ 10 µM

In: Supply Ki value. Item: Clc1cc(Cl)cc(O[C@H](c2cnccn2)[C@H]2CCNC2)c1
Out: ≤ 0.1 µM

In: Give the measured Ki for Cc1cc(Cl)cnc1O[C@@H](c1cncc(F)c1)[C@H]1CCNC1
Out: ≤ 0.1 µM

In: Kindly indicate its recorded Ki. Item: Fc1ccc(O[C@@H](c2ccccc2)C2CCNC2)c2ccccc12 (stereo partly shown)
Out: ≤ 0.1 µM

In: Item Clc1cccc(Cl)c1O[C@H](c1cccnc1)[C@H]1CCNC1 : provide Ki
Out: ≤ 0.1 µM

In: Give the measured Ki for Fc1cncc([C@H](Oc2c(F)cc(F)cc2F)[C@H]2CCNC2)c1
Out: ≤ 0.1 µM

In: Note down Ki recorded for Cc1ccccc1O[C@@H](c1ncco1)[C@H]1CCNC1
Out: ≤ 10 µM

In: Annotate the molecule FC(F)(F)Oc1cccc(C(Oc2cccc3ccccc23)C2CCNC2)c1 (stereo not shown) with its measured Ki.
Out: ≤ 0.1 µM

In: Specify Ki for COc1ccc2ccccc2c1OC(c1ccccc1)C1CCNC1 (stereo not shown) and stop.
Out: ≤ 0.1 µM

In: Return Ki for the following molecule: Fc1cc(F)c(O[C@H](c2ccncc2)[C@H]2CCNC2)c(F)c1
Out: ≤ 0.1 µM

In: Please give the documented Ki of Cc1ccc(Cl)c(O[C@H](c2ccncc2)[C@H]2CCNC2)c1Cl
Out: ≤ 0.1 µM

In: Answer with reported Ki of Cc1ccc(F)c(OC(c2nccs2)C2CCNC2)c1Cl (stereo not shown)
Out: ≤ 0.1 µM
